Test system: Zika virus NS2B-NS3 protease (linked construct)
Assay: Primary screen NINDS Rhodamine qHTS for Zika virus inhibitors (AID 1347160); further: nearly all actives have a fitted effect of over 55% in size
Conditions: purified NS2B-NS3 protease, Rhodamine110 substrate fluorescence; series mostly up to 57.1 µM
Results filed as inconclusive are left out. Active and inactive are the calls of the source. The call rests on the fitted dose curve; in most records, active means well fitted inhibition curve with a large enough effect; inconclusive means small, poorly fitted or top-dose-only effect; inactive means no such curve, though single readings can be large or run the other way.
quantityMeasured: outcome

Known results for compounds:
1) CCN1CCN(Cc2ccc(NC(=O)c3ccc(C)c(/C=C/c4cnc5[nH]ccc5c4OC)c3)cc2C(F)(F)F)CC1 = inactive
2) CC(C)Oc1ccc(C(=O)NC(CNC(=O)CN(C)C)Cc2ccc(-c3cn4cccc(C(C)O)c4n3)cc2)cc1Cl (stereo not drawn) = inactive
3) CON(C)C(=O)[C@H](O)[C@H](Cc1ccccc1)NC(=O)c1cc2cc(Cl)ccc2[nH]1 = inactive
4) C=C1C(=O)O[C@H]2C1[C@H](OC(=O)/C(=C/CO)COC(=O)/C(C)=C/CO)CC(=C)[C@@H]1CC(=O)[C@@H](C)[C@@H]12 (stereo partly drawn) = inactive
5) CC(=O)O[C@@H]1c2c(C)coc2C(=O)[C@@]23O[C@@H]2CC[C@H](C)[C@@]13C = inactive
6) COc1ccccc1NC(=O)OCC1CCN(C(=O)OC(C)(C)C)CC1 = inactive

Given the compound CCn1cc(NC(=S)Nc2cc(Cl)ccc2OC)c(C(N)=O)n1 , write its reported outcome. inactive

Given the compound C=CC(C)(CC/C=C(\C)C(=O)OC)OC1OC(COC(=O)CC(C)(O)CC(=O)O)C(OC2OC(CO)C(O)C(O)C2O)C(O)C1O (stereo not drawn) , write its reported outcome. inactive
